# assayed-target: squalene synthetase (Rattus norvegicus)
# Construct: from tissue; host or cells: liver of male SD rats (microsome fraction)
# Sequence (Q02769 1-416): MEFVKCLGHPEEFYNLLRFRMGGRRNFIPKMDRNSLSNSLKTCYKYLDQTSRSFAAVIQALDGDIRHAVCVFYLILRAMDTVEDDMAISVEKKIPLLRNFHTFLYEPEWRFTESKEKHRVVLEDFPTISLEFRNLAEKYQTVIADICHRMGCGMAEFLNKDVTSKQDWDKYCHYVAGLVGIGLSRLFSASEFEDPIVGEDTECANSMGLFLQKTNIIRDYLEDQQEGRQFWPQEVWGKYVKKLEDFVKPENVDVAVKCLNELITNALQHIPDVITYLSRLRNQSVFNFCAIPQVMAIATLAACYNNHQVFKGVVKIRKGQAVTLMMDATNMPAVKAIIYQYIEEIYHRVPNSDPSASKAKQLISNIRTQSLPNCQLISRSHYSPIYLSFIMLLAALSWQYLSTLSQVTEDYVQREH
# protocol-details: Squalene synthetase inhibitory activity, rat enzyme (rat liver microsome fraction)
# Format: biochemical
# test-conditions: 5 μM [1-3H]farnesylpyrophosphoric acid, pH 7.4, 37° C., 45 minutes, read-out: IC50, squalene synthetase inhibitory activity, Rat enzyme
assay-metric: IC50 (nM)

Examples with answers:
> print(dat)
                                   compound                           assayed.target  assay.metric  units.text  reported.result
1  O=P(O)(O)C(NCCCCCCCCCSc1ncccn1)P(=O)(O)O [compound 79]  squalene synthetase (Rattus norvegicus)          IC50          nM              8.8
2  O=P(O)(O)C(NCCCCCSC1CCCCC1)P(=O)(O)O [compound 7]  squalene synthetase (Rattus norvegicus)          IC50          nM               19
3  O=P(O)(O)C(NCCCCOc1ccc2c(c1)OCO2)P(=O)(O)O [compound 13]  squalene synthetase (Rattus norvegicus)          IC50          nM               19

P: O=P(O)(O)C(NCCCSCc1ccccc1)P(=O)(O)O [compound 17]
Q: O=P(O)(O)C(NCCCCCCCCCSc1ncccn1)P(=O)(O)O [compound 100]
Problem: Given the entries P and Q , determine which has the lower reported IC50. Selection: enter the item's label.
Q
(Q: 12 nM, P: 18 nM)

---

# assayed-target: squalene synthetase (Homo sapiens)
# Construct: From the resulting sonicate, microsome fraction was obtained according to the same manner as that described in Experiment 1; endogenous in cells; host or cells: HepG2 human hepatoma cells (microsome fraction)
# Sequence (P37268 1-417): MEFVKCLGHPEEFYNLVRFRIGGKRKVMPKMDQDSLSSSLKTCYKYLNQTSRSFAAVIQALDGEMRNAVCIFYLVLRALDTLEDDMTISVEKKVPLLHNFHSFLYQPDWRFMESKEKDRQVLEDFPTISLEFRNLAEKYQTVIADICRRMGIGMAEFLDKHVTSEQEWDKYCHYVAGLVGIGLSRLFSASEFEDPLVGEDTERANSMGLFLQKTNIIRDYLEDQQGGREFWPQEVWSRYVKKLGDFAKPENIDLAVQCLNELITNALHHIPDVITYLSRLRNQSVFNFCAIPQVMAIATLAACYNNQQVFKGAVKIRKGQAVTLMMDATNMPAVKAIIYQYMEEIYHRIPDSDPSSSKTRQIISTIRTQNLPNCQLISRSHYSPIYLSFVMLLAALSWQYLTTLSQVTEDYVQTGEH
# protocol-details: Squalene synthetase inhibitory activity, human enzyme (HepG2 microsome fraction)
# Assay type: biochemical
# test-conditions: human hepatoma HepG2 microsome fraction; 5 μM [1-3H]farnesylpyrophosphoric acid, pH 7.4, 37° C., 45 minutes; read-out: IC50, squalene synthetase inhibitory activity, Human enzyme
assay-metric: IC50 (nM)

Examples with answers:
> print(dat)
                                   molecule  assay.metric  units.text  reported.result
1  O=P(O)(O)C(NCCCCCCCCCSc1ncccn1)P(=O)(O)O [compound 79]          IC50          nM                7
2  CCSCCCCCNC(P(=O)(O)O)P(=O)(O)O [compound 8]          IC50          nM              110
3  CCOP(=O)(OCC)C(NCCCCCCSc1ccc(Cl)cc1)P(=O)(OCC)OCC [compound 28]          IC50          nM             3200

1: O=P(O)(O)C(NCCCCCCCCCCSc1ccccc1)P(=O)(O)O [compound 61]
2: CC(C)(C)SCCCCNC(P(=O)(O)O)P(=O)(O)O [compound 5]
Recorded IC50 values differ for 1 and 2 ; which one is higher? Selection: enter the item's label.
2
(2: 9100 nM, 1: 0.47 nM)

A: O=P(O)(O)C(NCCCCCC[S+]([O-])c1ccccc1)P(=O)(O)O (stereo not shown) [compound 60]
B: O=P(O)(O)C(NCCCSCc1ccccc1)P(=O)(O)O [compound 17]
C: CC(C)=CCC/C(C)=C/CC/C(C)=C/CC(P(=O)(O)O)P(=O)(O)O [compound 106]
D: O=P(O)(O)C(NCCCCCOc1ccccc1)P(=O)(O)O [compound 10]
Exam item: list the entries in increasing order of IC50. Answer format: list of labels, ordered as asked.
A, D, B, C
